Sourced from patent US4997757A

Assay: survival of yeast exposed to agent
Assay type: cell-based, Saccharomyces cerevisiae
Conditions: yeast strain rs112, 0.1 μg/ml
Excerpt: It is preferred to conduct a preliminary experiment to determine those concentrations of the agent to be tested which should be evaluated in the main experiment. Yeast cells are exposed to a wide range of concentrations of the agent to be tested to determine its cytotoxicity. […] The strain used in this example was RS112 which was obtained by crossing strain RSY6 with strain 428. […] Strains containing the his3Δ-200 mutation are readily available to those skilled in the art.
Outcome measure: viability at 17 h

viability at 17 h for O=[N+]([O-])c1cc[n+]([O-])c2ccccc12 [NQO, 4-nitroquinoline-N-oxide] ?
84%
